Values compiled from paper PMC7866232.

Target: human recombinant COX-2 (Homo sapiens)
Sequence (P35354 18-604): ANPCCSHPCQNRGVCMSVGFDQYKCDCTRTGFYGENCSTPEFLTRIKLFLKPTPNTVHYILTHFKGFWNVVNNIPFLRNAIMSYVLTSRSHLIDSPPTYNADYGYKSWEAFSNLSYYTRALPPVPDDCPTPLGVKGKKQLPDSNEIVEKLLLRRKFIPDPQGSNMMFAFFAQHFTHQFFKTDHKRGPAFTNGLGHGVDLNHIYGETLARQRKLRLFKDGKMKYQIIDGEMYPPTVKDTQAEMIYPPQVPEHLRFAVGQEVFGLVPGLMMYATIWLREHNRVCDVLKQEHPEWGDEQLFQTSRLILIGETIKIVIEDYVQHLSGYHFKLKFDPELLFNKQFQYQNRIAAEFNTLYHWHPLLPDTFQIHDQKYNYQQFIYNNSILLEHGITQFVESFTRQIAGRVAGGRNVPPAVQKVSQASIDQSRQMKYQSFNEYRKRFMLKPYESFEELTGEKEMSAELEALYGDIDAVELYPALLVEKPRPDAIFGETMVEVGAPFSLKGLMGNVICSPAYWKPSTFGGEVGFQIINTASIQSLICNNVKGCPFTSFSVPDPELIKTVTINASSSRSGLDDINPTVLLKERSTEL
Test: COX inhibitor screening assay in vitro, COX-2
measure: IC50

{"molecule": "COc1cc(/C=c2\\sc3nc(C45CC6CC(CC(C6)C4)C5)nn3c2=O)ccc1O [Compound 6]", "val": "> 50 µM"}
{"molecule": "O=c1/c(=C/c2cccc(O)c2)sc2nc(C34CC5CC(CC(C5)C3)C4)nn12 [Compound 2]", "val": "> 50 µM"}
